- System: HT-29
- test_details: Growth inhibition of human HT-29 cells after 72 hrs by MTT assay
- Format: functional
- cond: HT-29, 72 h
# maps each entry to its GI50
// units = µM; emit number, no label

molecule=CCCc1cc2c(C)cc3c(c2o1)C(=O)c1c(O)cccc1C3=O result_unit=µM number=1.2

Problem: GET /values?readout=GI50&system=HT-29&item= `CCCCc1cc(=O)oc2c3c(cc(C)c12)C(=O)c1cccc(OC(C)C)c1C3=O`
Result: 18

Problem: Now consider `Cc1cc2c(c3oc(CCCCl)cc13)C(=O)c1c(OC(C)C)cccc1C2=O` .
Result: 18

Problem: Now consider `CCc1cc(=O)c2c(C)cc3c(c2o1)C(=O)c1c(OC)cccc1C3=O` .
Result: 4.5

Problem: Now consider Cc1cc2c(c3oc(C(C)O)cc13)C(=O)c1c(OC(C)C)cccc1C2=O (stereo not given) .
Result: 24

Problem: Now consider `Cc1cc2c(c3oc(=O)cc(CCCCl)c13)C(=O)c1c(OC(C)C)cccc1C2=O` .
Result: 24

Problem: Now consider CCC(C)(OCc1ccccc1)c1cc2c(C)cc3c(c2oc1=O)C(=O)c1c(O)cccc1C3=O (stereo not given) .
Result: 5.6

Problem: Now consider CCC(C)(O)c1cc2c(C)cc3c(c2oc1=O)C(=O)c1c(OC(C)C)cccc1C3=O (stereo not given) .
Result: 11

Problem: Now consider `CCc1cc(=O)c2c(C)cc3c(c2o1)C(=O)c1c(OC(C)C)cccc1C3=O` .
Result: 4.8

Problem: Now consider `CC(=O)c1cc2c(C)cc3c(c2o1)C(=O)c1c(OC(C)C)cccc1C3=O` .
Result: 9.7

Problem: Now consider `C=C(C)c1cc(=O)c2c(C)cc3c(c2o1)C(=O)c1c(O)cccc1C3=O` .
Result: 1.6

Problem: Now consider `CCCc1cc(=O)c2c(C)cc3c(c2o1)C(=O)c1c(OC)cccc1C3=O` .
Result: 5.5

Problem: Now consider `Cc1cc2c(c3oc(=O)c(CCCC#N)cc13)C(=O)c1c(O)cccc1C2=O` .
Result: 14

Problem: Now consider `Cc1cc2c(c3oc(C(=O)c4ccccc4)cc13)C(=O)c1c(OC(C)C)cccc1C2=O` .
Result: 1.4

Problem: Now consider `Cc1cc2c(c3oc(=O)c([Si](C)(C)C)cc13)C(=O)c1c(OC(C)C)cccc1C2=O` .
Result: 11

Problem: Now consider `Cc1cc2c(c3oc(CCC(F)(F)F)cc(=O)c13)C(=O)c1c(O)cccc1C2=O` .
Result: 0.94

Problem: Now consider `CCCc1cc(=O)c2c(C)cc3c(c2o1)C(=O)c1c(O)cccc1C3=O` .
Result: 3.2

---

# maps each entry to its GI50
- Tested on: HT-29
- test_details: Growth inhibition of human HT-29 cells after 72 hrs by MTT assay
- Type: functional
- cond: HT-29, 72 h
// units = µM; emit number, no label

compound_smiles=CC(=O)c1cc2c(C)cc3c(c2o1)C(=O)c1c(O)cccc1C3=O property=GI50 result_unit=µM number=4.7
compound_smiles=Cc1cc2c(c3oc(=O)c(C(C)(C)C)cc13)C(=O)c1c(OC(C)C)cccc1C2=O property=GI50 result_unit=µM number=13

Continue with the next compound.
Problem: For `Cc1cc2c(c3oc(=O)c(C(C)(C)O)cc13)C(=O)c1c(OC(C)C)cccc1C2=O` , what is its reported GI50?
Result: 30
